Origin of the recorded values: patent US10336762B2

test system: TNFα; experiment: cells; format: cell-based, human; settings: Homo sapiens, Monocyte, LPS-stimulated human monocytes, TNFα content; read-out: EC50 TNF
Provide the reported pEC50 of each item.
Give bare numbers, as −log10 of the molar value.

For each of the molecules below, state pEC50.
1. COC(=O)NCCCC(C)(C)Nc1cc(-c2ccc3cc(C#N)cnn23)ncc1C(=O)NC[C@@H](F)C(C)(C)O
2. CC(C)Nc1cc(-c2ccc3cc(C#N)cnn23)ncc1C(=O)NCc1ccc(=O)[nH]c1
3. CC(C)(O)[C@H](F)CNC(=O)c1cnc(-c2ccc3cc(C#N)cnn23)cc1Nc1ccc(-n2cncn2)nc1
4. CN1C(=O)C(C)(C)c2ccc(Nc3cc(-c4ccc5cc(C#N)cnn45)ncc3C(=O)NC[C@@H](F)C(C)(C)O)cc21
5. CNC(=O)c1cnc(-c2ccc3cc(C#N)cnn23)cc1N[C@@H]1CCC[C@@H](C(=O)NC)C1
6. COCc1nnc(NC[C@H]2C[C@H](Nc3cc(-c4ccc5cc(C#N)cnn45)ncc3C(=O)NC[C@@H](F)C(C)(C)O)C2)o1
7. COC(=O)N1CC[C@@H](CNC(=O)c2cnc(-c3ccc4cc(C#N)cnn34)cc2NC23CCC(O)(CC2)CC3)C1

Key:
1. 6.61
2. 6.30
3. 7.42
4. 6.73
5. 5.96
6. 6.77
7. 6.90

---

target: IRAK4 enzyme (Homo sapiens (Human), UniProt Q9NWZ3); assay: biochemical; format: biochemical; conditions: IRAK4 enzyme, TR-FRET, 500 μM ATP
Sequence (Q9NWZ3 whole entry): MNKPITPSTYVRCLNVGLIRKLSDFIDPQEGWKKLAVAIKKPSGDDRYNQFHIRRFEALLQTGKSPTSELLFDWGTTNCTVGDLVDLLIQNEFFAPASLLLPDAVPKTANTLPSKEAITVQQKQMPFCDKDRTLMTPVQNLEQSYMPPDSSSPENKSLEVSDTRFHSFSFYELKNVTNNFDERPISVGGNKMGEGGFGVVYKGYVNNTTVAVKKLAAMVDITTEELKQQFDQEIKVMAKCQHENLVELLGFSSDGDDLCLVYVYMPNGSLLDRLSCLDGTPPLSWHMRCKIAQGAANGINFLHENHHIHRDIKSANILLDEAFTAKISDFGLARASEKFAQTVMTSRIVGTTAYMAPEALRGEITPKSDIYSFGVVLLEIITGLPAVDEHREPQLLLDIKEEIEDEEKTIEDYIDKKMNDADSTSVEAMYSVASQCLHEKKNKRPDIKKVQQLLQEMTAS
Reported endpoint: pIC50
Answers are plain numbers, as −log10 of the molar value.

> print(dat)
                                   molecule  value
1  Cn1cnc(-c2ccc(Nc3cc(-c4ccc5cc(C#N)cnn45)ncc3C(=O)NC[C@@H](F)C(C)(C)O)cc2)n1   9.00
2  Cn1ccnc1CNC(=O)c1cnc(-c2ccc3cc(C#N)cnn23)cc1NC12CCC(O)(CC1)CC2   9.00
3  CC(C)(O)[C@H](F)CNC(=O)c1cnc(-c2ccc3cc(C#N)cnn23)cc1NC1CC2(CCN2CC(F)(F)F)C1 (stereo partly shown) [Example 913]   8.52

Please examine the following record next.
Exercise: # return recorded pIC50 for input CNC(=O)c1cnc(-c2ccc3cc(C#N)cnn23)cc1N[C@H]1CC[C@H](NC(=O)OC)CC1
Key: 9.00

---

biological target: IRAK4 enzyme (Homo sapiens (Human), UniProt Q9NWZ3); assay: biochemical; type: biochemical; settings: IRAK4 enzyme, TR-FRET, 500 μM ATP
Reported endpoint: pIC50
One number for each entry, as −log10 of the molar value.

Some entries whose results are on file:
> print(dat)
                                   compound                                    target  value
1  CNC(=O)O[C@H]1CC[C@H](Nc2cc(-c3ccc4cc(C#N)cnn34)ncc2C(=O)NC[C@@H](F)C(C)(C)O)CC1 [Example 165]  IRAK4 enzyme (Homo sapiens (Human), UniProt Q9NWZ3)   7.23
2  Cn1cc(CNc2cc(-c3ccc4cc(C#N)cnn34)ncc2C(=O)NC[C@@H](F)C(C)(C)O)cn1 [Example 104]  IRAK4 enzyme (Homo sapiens (Human), UniProt Q9NWZ3)   8.22
3  CC(C)(O)[C@H](F)CNC(=O)c1cnc(-c2ccc3cc(C#N)cnn23)cc1Nc1ccnnc1 [Example 183]  IRAK4 enzyme (Homo sapiens (Human), UniProt Q9NWZ3)   8.22
4  COC(C)(C)CCNC(=O)c1cnc(-c2ccc3cc(C#N)cnn23)cc1NC(C)C [Example 87]  IRAK4 enzyme (Homo sapiens (Human), UniProt Q9NWZ3)   9.00
5  CC(C)Nc1cc(-c2ccc3cc(C#N)cnn23)ncc1C(=O)N[C@H]1CC[C@H](N)CC1 [Example 12]  IRAK4 enzyme (Homo sapiens (Human), UniProt Q9NWZ3)   8.70

For each of the compounds below, state pIC50.
1. CC(C)Nc1cc(-c2ccc3cc(C#N)cnn23)ncc1C(N)=O [Example 39]
2. CC(C)(O)[C@H](F)CNC(=O)c1cnc(-c2ccc3cc(C#N)cnn23)cc1Nc1ccccc1C(N)=O [Example 382]
3. CC(C)(O)[C@H](F)CNC(=O)c1cnc(-c2ccc3cc(C#N)cnn23)cc1NS(C)(=O)=O [Example 10]
4. COC(=O)N1CCC(n2cc(Nc3cc(-c4ccc5cc(C#N)cnn45)ncc3C(=O)NC[C@@H](F)C(C)(C)O)cn2)CC1 [Example 235]
5. CC(C)Nc1cc(-c2ccc3cc(C#N)cnn23)ncc1C(=O)N[C@@H]1CC[C@@H](O)C1 [Example 188]
6. CC(C)(C)C(=O)N[C@H]1CC[C@H](Nc2cc(-c3ccc4cc(C#N)cnn34)ncc2C(=O)NC[C@@H](F)C(C)(C)O)CC1 [Example 296]

Key:
8.40
8.00
6.63
8.70
8.10
8.52

---

target: IRAK4 enzyme (Homo sapiens (Human), UniProt Q9NWZ3); assay: biochemical; assay type: biochemical; settings: IRAK4 enzyme, TR-FRET, 500 μM ATP
Rule: measured IC50 below 2 nM gets met; anything equal to or greater than 2 nM gets not met.

Exercise: Quick check: IC50 of CC(C)(O)[C@H](F)CNC(=O)c1cnc(-c2ccc3cc(C#N)cnn23)cc1N[C@H]1CC[C@H](NS(C)(=O)=O)CC1 under 2 nM?
Key: met

Exercise: Quick check: IC50 of C[C@]1(O)C[C@H](Nc2cc(-c3ccc4cc(C#N)cnn34)ncc2C(=O)NCC#N)C1 under 2 nM?
Key: not met

Exercise: Quick check: IC50 of CC(C)Oc1cccc(Nc2cc(-c3ccc4cc(C#N)cnn34)ncc2C(=O)NC[C@@H](F)C(C)(C)O)c1 under 2 nM?
Key: not met

Exercise: Quick check: IC50 of CC(C)(O)[C@H](F)CNC(=O)c1cnc(-c2ccc3cc(C#N)cnn23)cc1N[C@H]1CCC[C@H]1O under 2 nM?
Key: met

Exercise: Quick check: IC50 of CC(C)(O)[C@H](F)CNC(=O)c1cnc(-c2ccc3cc(C#N)cnn23)cc1Nc1ccc2c(c1)CN(C1COC1)C2 under 2 nM?
Key: met

Exercise: Quick check: IC50 of CC(C)Nc1cc(-c2ccc3cc(C#N)cnn23)ncc1C(=O)NC1CCOCC1 under 2 nM?
Key: not met

---

biological target: IRAK4 enzyme (Homo sapiens (Human)); test: biochemical; format: biochemical; details: IRAK4 enzyme, TR-FRET, 500 μM ATP
Reported endpoint: IC50 (nM)
One number for each entry, in nM.

> print(dat)
                                   molecule                               target  reported.endpoint  unit.spec  value
1  COC(=O)NC12CCC(Nc3cc(-c4ccc5cc(C#N)cnn45)ncc3C(=O)NC3CCC(NC(=O)N4CCOCC4)CC3)(CC1)CC2 (stereo not shown)  IRAK4 enzyme (Homo sapiens (Human))               IC50         nM      1

For each of the molecules below, state IC50.
1. CC(C)(O)[C@H](F)CNC(=O)c1cnc(-c2ccc3cc(C#N)cnn23)cc1Nc1nccs1
2. CC1(F)CN(C(=O)C23CCC(Nc4cc(-c5ccc6cc(C#N)cnn56)ncc4C(=O)NC[C@@H](F)C(C)(C)O)(CC2)CC3)C1
3. CC(C)(O)[C@H](F)CNC(=O)c1cnc(-c2ccc3cc(C#N)cnn23)cc1N[C@@H]1CCCN(S(C)(=O)=O)C1
4. COC(=O)NC1CCC(NC(=O)c2cnc(-c3ccc4cc(C#N)cnn34)cc2N[C@H]2CC[C@H](NC(=O)OC)CC2)CC1 (stereo partly shown)

Key:
1. 1
2. 1
3. 17
4. 1

---

molecular target: IRAK4 enzyme (Homo sapiens (Human), UniProt Q9NWZ3); experiment: biochemical; type: biochemical; conditions: IRAK4 enzyme, TR-FRET, 500 μM ATP
Reported endpoint: pIC50
Numbers only, as −log10 of the molar value.

Some entries whose results are on file:
> print(dat)
                               entry.smiles                                    target  value
1  CC(=O)N[C@H]1C[C@H](NC(=O)c2cnc(-c3ccc4cc(C#N)cnn34)cc2NC(C)C)C1  IRAK4 enzyme (Homo sapiens (Human), UniProt Q9NWZ3)   8.52
2  CC(C)(O)[C@H](F)CNC(=O)c1cnc(-c2ccc3cc(C#N)cnn23)cc1NC12CCC(NC(=O)C(F)(F)F)(CC1)CC2  IRAK4 enzyme (Homo sapiens (Human), UniProt Q9NWZ3)   9.00
3  COC(=O)N1CC[C@H]1CNc1cc(-c2ccc3cc(C#N)cnn23)ncc1C(=O)NC[C@@H](F)C(C)(C)O  IRAK4 enzyme (Homo sapiens (Human), UniProt Q9NWZ3)   7.85

Exercise: # return recorded pIC50 for input CC(C)(C)NC(=O)c1cnc(-c2ccc3cc(C#N)cnn23)cc1NC12CCC(O)(CC1)CC2
Key: 8.05
